# testedTarget: CypA (Homo sapiens, UniProt P62937)
# Sequence (P62937 whole entry): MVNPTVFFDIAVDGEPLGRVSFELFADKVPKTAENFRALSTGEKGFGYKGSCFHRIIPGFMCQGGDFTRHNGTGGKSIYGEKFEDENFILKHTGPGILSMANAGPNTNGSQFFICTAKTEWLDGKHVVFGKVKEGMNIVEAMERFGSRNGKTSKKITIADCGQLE
pKd: −log10 of the molar value.
Label true when pKd is at or above 5; anything below gets false.

>>> print(df.to_string())
                                   compound  assignedlabel
0  Cc1noc(NS(=O)(=O)c2ccc(NC(=O)c3ccnc(-c4ccccc4)c3)cc2)c1C [Compound 16m]          false

Input line: Can O=C(Nc1ccc(S(=O)(=O)Nc2cnc3ccccc3n2)cc1)c1cc(-c2cccc(Br)c2)nc2ccccc12 [Compound 16j] be said to have pKd at or above 5?
Output line: true

Input line: Can Cc1noc(NS(=O)(=O)c2ccc(NC(=O)c3cc(-c4ccc(Br)cc4)nc4ccccc34)cc2)c1C [Compound 16c] be said to have pKd at or above 5?
Output line: true

====

pKd, CypA (Homo sapiens, UniProt P62937): measured values
The read-out pKd is expressed as -log10 of concentration in moles per litre.

Field: example entries. Status: answers known.
>>> df
                                   compound  endpointlabel  numericvalue
0  Cc1noc(NS(=O)(=O)c2ccc(NC(=O)c3cc(-c4cccs4)nc4ccccc34)cc2)c1C [Compound 16f]            pKd          4.04
1  Cc1ccccc1-c1cc(C(=O)Nc2ccc(S(=O)(=O)Nc3onc(C)c3C)cc2)ccn1 [Compound 16p]            pKd          5.12
2  Cc1noc(NS(=O)(=O)c2ccc(NC(=O)c3ccnc(-c4ccc(Br)cc4)c3)cc2)c1C [Compound 16l]            pKd          4.05
3  Cc1noc(NS(=O)(=O)c2ccc(NC(=O)c3cc(-c4cccc(Br)c4)nc4ccc(F)cc34)cc2)c1C [Compound 16i]            pKd          5.65
4  Cc1noc(NS(=O)(=O)c2ccc(NC(=O)c3cc(C4CCCCC4)nc4ccccc34)cc2)c1C [Compound 16g]            pKd          5.75
5  Cc1noc(NS(=O)(=O)c2ccc(NC(=O)c3cc(-c4ccncc4)nc4ccccc34)cc2)c1C [Compound 16e]            pKd          4.97
6  Cc1noc(NS(=O)(=O)c2ccc(NC(=O)c3cc(-c4cccc(F)c4)nc4ccccc34)cc2)c1C [Compound 16a]            pKd          4.99
7  Cc1noc(NS(=O)(=O)c2ccc(NC(=O)c3ccnc(-c4ccc(Cl)cc4)c3)cc2)c1C [Compound 16n]            pKd          5.73
8  Cc1ccnc(NS(=O)(=O)c2ccc(NC(=O)c3ccnc(-c4ccccc4C)c3)cc2)n1 [Compound 16q]            pKd          3.47

// pKd lookup, compound = Cc1noc(NS(=O)(=O)c2ccc(NC(=O)Cc3ccc(Cl)cc3)cc2)c1C [Compound 17d] , result: 6.46

====

# testedTarget: CypA (Homo sapiens, UniProt P62937)
List of Kd values.
The answer consists of two parts: a number and, after it, its unit.

Field: example entries. Status: answers known.
                                   compound   result
0  Cc1noc(NS(=O)(=O)c2ccc(NC(=O)c3cc(-c4ccccc4Br)nc4ccccc34)cc2)c1C [Compound 16d]   223 µM
1  O=C(CCc1ccccc1)Nc1ccc(S(=O)(=O)Nc2cnc3ccccc3n2)cc1 [Compound 17c]  1.06 µM

Fill in: CypA (Homo sapiens, UniProt P62937) Kd for O=C(Cc1ccc(Cl)cc1Cl)Nc1ccc(S(=O)(=O)Nc2cnc3ccccc3n2)cc1 [Compound 17a] = 37.7 µM

Fill in: CypA (Homo sapiens, UniProt P62937) Kd for O=C(Nc1ccc(S(=O)(=O)Nc2cnc3ccccc3n2)cc1)c1ccccc1 [Compound 17b] = 23.4 µM

Fill in: CypA (Homo sapiens, UniProt P62937) Kd for Cc1noc(NS(=O)(=O)c2ccc(NC(=O)c3ccnc(-c4ccc(F)cc4)c3)cc2)c1C [Compound 16o] = 42.4 µM
